assay: Spectrofluorometric titration of compound with Zn^2+ (ZnCl2); type: binding; settings: approx.
assay_readout: Kd

// query // Kd lookup, key: O=C([O-])CN(CC(=O)[O-])c1cccc(N(CC(=O)[O-])CC(=O)[O-])c1.[Na+].[Na+].[Na+].[Na+]
// result ~2000 µM
